Assay procedure: Pharmacokinetic analysis in mice with three administration routes (plasma, LC-MS)
Format: in vivo
Assay conditions: mouse, NOD/SCID mice, PO, 50 mg/kg IKE
Assay endpoint: Tmax (min)
Write the number in min without appending the unit.

Which value of Tmax has been reported for CC(C)Oc1ccc(C(=O)Cn2ccnc2)cc1-n1c(CN2CCN(C(=O)COc3ccc(Cl)cc3)CC2)nc2ccccc2c1=O in the records?
43.2

* * *

Assay procedure: Pharmacokinetic analysis in mice with three administration routes (plasma, LC-MS)
Assay type: in vivo
Assay conditions: mouse, NOD/SCID mice, PO, 50 mg/kg IKE
Assay endpoint: AUC(0-t) (ng·h/mL)
Give just the number in ng·h/mL; leave the unit off.

Entry CC(C)Oc1ccc(C(=O)Cn2ccnc2)cc1-n1c(CN2CCN(C(=O)COc3ccc(Cl)cc3)CC2)nc2ccccc2c1=O [IKE, Imidazole ketone erastin] : reported AUC(0-t) = ?
5720

* * *

Assay procedure: Pharmacokinetic analysis in NCG mice bearing SUDHL6 xenografts (plasma and tumor, LC-MS)
Assay type: in vivo
Assay conditions: mouse; plasma, SUDHL6-xenograft NCG mice, single dose 50 mg/kg IP
Assay endpoint: AUC(0-t)
Provide a numeric answer, followed by its unit.

Tell me the measured AUC(0-t) of CC(C)Oc1ccc(C(=O)Cn2ccnc2)cc1-n1c(CN2CCN(C(=O)COc3ccc(Cl)cc3)CC2)nc2ccccc2c1=O [IKE, Imidazole ketone erastin] , please.
10900 ng·h/mL

* * *

Assay procedure: Pharmacokinetic analysis in NCG mice bearing SUDHL6 xenografts (plasma and tumor, LC-MS)
Assay type: in vivo
Assay conditions: mouse; tumor tissue, SUDHL6-xenograft NCG mice, single dose 50 mg/kg IP
Assay endpoint: Cmax (ng/mL)
Answer format: numeric, ng/mL implied, no suffix.

Suppose we examine the compound CC(C)Oc1ccc(C(=O)Cn2ccnc2)cc1-n1c(CN2CCN(C(=O)COc3ccc(Cl)cc3)CC2)nc2ccccc2c1=O [IKE, Imidazole ketone erastin] ; what Cmax value has been reported?
2520

* * *

Assay procedure: Pharmacokinetic analysis in mice with three administration routes (plasma, LC-MS)
Assay type: in vivo
Assay conditions: mouse, NOD/SCID mice, PO, 50 mg/kg IKE, read-out: Clast
Assay endpoint: concentration at 8 h (ng/mL)
Give the value, in units of ng/mL, as a plain number.

// query concentration at 8 h value for entry CC(C)Oc1ccc(C(=O)Cn2ccnc2)cc1-n1c(CN2CCN(C(=O)COc3ccc(Cl)cc3)CC2)nc2ccccc2c1=O
48

* * *

Assay procedure: Pharmacokinetic analysis in NCG mice bearing SUDHL6 xenografts (plasma and tumor, LC-MS)
Assay type: in vivo
Assay conditions: mouse; plasma, SUDHL6-xenograft NCG mice, single dose 50 mg/kg IP
Assay endpoint: Tmax (h)
Unit h implied. Number only.

Data request, read-out Tmax, for CC(C)Oc1ccc(C(=O)Cn2ccnc2)cc1-n1c(CN2CCN(C(=O)COc3ccc(Cl)cc3)CC2)nc2ccccc2c1=O
1.35

* * *

Tested on: SUDHL 7
Assay procedure: DLBCL cell line sensitivity to IKE (CellTiter-Glo viability, 24 h)
Assay type: cell-based
Assay conditions: SUDHL 7, 24 hours; read-out: cell line sensitivity to IKE (IC50 class)
Assay endpoint: IC50

Looking for the measured IC50 of CC(C)Oc1ccc(C(=O)Cn2ccnc2)cc1-n1c(CN2CCN(C(=O)COc3ccc(Cl)cc3)CC2)nc2ccccc2c1=O [IKE, Imidazole ketone erastin] , can you help?
> 10 µM
